# protein stability index per entry
Assay: protein stability index of a GFP-peptide fusion (GPS, HEK-293T) (PSI 1-6); higher = more stable;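 further: 24-mer peptide tiles fused after GFP, lentivirally expressed, FACS-sorted into six equal bins by GFP/DsRed ratio, decoded by Illumina sequencing, PSI is the read-weighted mean bin number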
Conditions: treatment: DMSO; c terminus: a fixed tail appended
Parameter measured: protein stability index

# Sequence record, Experimental value
records = [
    ("HVTLTLPPTQLEVNLEEIPGEGLL [C2CD2L]", 4.07),
    ("YSAIDRVKSRGKRLALEKVPKVGQ [PI4K2A]", 4.04),
    ("VHRQLGEANEEFALRVQQLVAKEL [AUP1]", 3.79),
    ("LDQAPKARKYFERLPGGGWTLRRT [DYRK1B]", 3.48),
    ("PSPSEVITPWTPSPSEKNSSFTWS [SMTNL2]", 4.22),
    ("DSLLLHSSGQCRRRKRTYWNDSCG [WEE1]", 2.75),
    ("QQHRQGRSHHLEMVIQLLAIMCVS [PTGFR]", 2.61),
]

---

Assay: protein stability index of a GFP-peptide fusion (GPS, HEK-293T) (PSI 1-6); higher = more stable
Conditions: treatment: DMSO; c terminus: a fixed tail appended
# maps each entry to its protein stability index

# Sequence record, protein stability index
data = [
    ("NTEVVQVAAGRTQKAGVTRSGRLI [NEK8]", 4.32),
    ("QPPEFRNESSLASTLKTLLFFTAL [VMA21]", 2.42),
    ("MSLLPDKKTVHYYAELGQCSVFPA [PLK2]", 2.41),
    ("PLPAGSLPPYPPYFEGAPFPHPLW [PWWP2B]", 2.58),
    ("LAQAAGFAPQTGARPSETFARFCK [DNAAF3]", 3.52),
    ("SGAGRRKNATRETTSTLKAWLNEH [IRX6]", 3.55),
    ("PRNGDQWHEIRQGRLPRIPQVLSQ [WEE1]", 3.12),
    ("TLARMSRRTRGPVERAAAAAAAAA [C6orf223]", 3.02),
    ("ERLKANDNLKFSQEYESIDPGQQF [PTPRD]", 4.21),
    ("SKQRKDFEGMAFLETEQGKPFVSV [GMCL1]", 3.42),
    ("GRGAVVPGAGLRRPTYTPPSIMPQ [ZBTB22]", 3.51),
    ("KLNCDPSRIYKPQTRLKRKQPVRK [DFFB]", 3.36),
    ("SDGVYAIVATLLILDICEDNVPDP [TMEM175]", 2.86),
    ("LSLLTNRGSKMFKLRQMRVEKFIY [MYOZ1]", 2.13),
    ("KLWSFFIYLLRRQIRTVIQYQTVR [CTDNEP1]", 2.99),
    ("RPSEIKDYSPYFKTIEDLRNKIIA [KRT16]", 2.28),
    ("TCGEGYQFRVVRCWKMLSPGFDSS [ADAMTSL2]", 2.77),
    ("QVDVRFFGHHHQRAWIPSENIQDI [ZMYND11]", 2.74),
    ("TYAMGHLIQRKKVHVFGDELSLVT [TNFSF13B]", 2.32),
    ("PNYEFKLGKITFIRNSRPLVKKVE [UFD1]", 2.62),
    ("LLLPGLNQHGIILKYIGMAKREIN [ARL6IP1]", 2.42),
    ("AFASGSDDATCRLYDLRADREVAI [GNB5]", 3.12),
    ("EEMRELRRKIRELQLRYSLRILIG [BEX5]", 2.76),
    ("DSVAEVAAKARDTGILIFAIGVGQ [MATN2]", 2.73),
    ("WQSESLPVSLSASQSWHTESLPVS [BCL2L13]", 3.26),
    ("IHDALLEAVTCGNTEVPARNLYAY [PTPRD]", 2.29),
    ("MNVDFDAPLGYKEPERQVQHEEST [UFD1]", 5.28),
]

---

Catalogue of protein stability index readings, one per entry.
Experiment: protein stability index of a GFP-peptide fusion (GPS, HEK-293T) (PSI 1-6); higher = more stable
Details: treatment: MLN4924 1 uM, 8 h; c terminus: a fixed tail appended
Parameter measured: protein stability index

# Sequence record, Experimental value
measured = [
    ("LTRRLAHGEELRVSARSREGRGGR [HAGHL]", 4.99),
    ("DEWACELRLFGRVLERAACLRRCK [P3H4]", 2.8),
    ("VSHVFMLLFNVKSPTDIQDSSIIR [RHOBTB3]", 2.64),
    ("LHPRGKNNFSPLHLAVDKNTTCVG [FEM1C]", 3.43),
    ("EMLTGQERVALANRKRECGNAHYQ [FKBP8]", 3.86),
    ("SFQLEISGFLKEMACPYSVLISGD [FAM98B]", 2.11),
    ("GPGIPPLMPGMPPGMPPPVPRPGI [ZNF207]", 4.35),
    ("TNCWLIRELNLPFGGMKSSGIGRE [ALDH8A1]", 2.29),
    ("ESSSPARGIAIVSVLVILISIVIF [KCNA4]", 2.9),
    ("ELLVYIVFLVDICLLTYGMTSSSA [PKD2L1]", 2.93),
    ("GWGTVFSLESEEEEYPGITAEDSN [BCL2L13]", 5.03),
    ("ILISFTCRFLLNSRVTDAAFNFLL [TMEM120A]", 3.25),
    ("EPATPEEGEPATQRQDPAAAQEGE [GAGE1]", 5.61),
    ("HVKFRSLSMVSECLFSLINGDDMF [MCOLN1]", 2.61),
    ("LQKDLETRPTQHELRLYKQQVKKL [CEP70]", 4.42),
    ("VGLIQAAQQLLCDEQAPQRQRLLA [DFFB]", 3.19),
    ("LLECYIQYHHSKIRNRGYNLIYRS [TMEM192]", 2.73),
    ("SLCYLQLTRQLVSCSSDGGIAVWN [WDFY1]", 2.81),
    ("YMGKGSMTGLALKHMFERSFTQGE [MATN2]", 3.07),
    ("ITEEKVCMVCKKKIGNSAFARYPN [VPS39]", 3.43),
    ("MNVDFDAPLGYKEPERQVQHEEST [UFD1]", 5.31),
    ("ELSNILNLSYKQVKTWFQNQRMKS [NANOGP8]", 2.38),
    ("EEENAQLRGALQQGEAFQRALESE [PBXIP1]", 5.39),
    ("QEPEVPCAAVLPGKPGDRNCPEFP [RSPH3]", 5.13),
    ("PPSEPVPSLEDISCNTWPSMPSYS [TBX5]", 4.38),
    ("ETLLGDPEKRTQYFDPLRNEYFFD [KCNA4]", 3.81),
    ("CNTFVYSSSKGTIRLCDMRASALC [PPP2R2B]", 2.34),
]

---

Test: protein stability index of a GFP-peptide fusion (GPS, HEK-293T) (PSI 1-6); higher = more stable
Conditions: treatment: MLN4924 1 uM, 8 h; c terminus: a fixed tail appended
Outcome label depends on protein stability index relative to 3: at/above gives rule met, below gives rule not met.

# Sequence record, Assigned category
rows = [
    ("GQSLLKDEALAIAALELLPRELFP [PRAME]", "rule not met"),
    ("ELFIEISRRIPSTDANLPSGGKGF [RAB22A]", "rule not met"),
    ("VNSTLKELRRLFLVQDLVDSLKFA [RTN1]", "rule not met"),
    ("GCVSRCWEVQVSPTCPVCKDRASP [TRIM35]", "rule met"),
    ("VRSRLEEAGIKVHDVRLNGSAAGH [TENT5C]", "rule met"),
    ("YPPQMGEEYSQIIYSTKLYRFFKY [BTBD10]", "rule not met"),
    ("IPISLETQAHIQECKHPSVFQHGD [MCOLN1]", "rule met"),
    ("LMLELKSLQEEPVEGFRITLVDES [UBE2R2]", "rule not met"),
    ("RNGAVRRFGQTIQSFTLRGDHRSP [NET1]", "rule met"),
    ("SAAPSNDQDGEYCPEVKLKTTGLE [SRPK2]", "rule met"),
    ("KDIAPEKQLLNSAVIAQQRRKPDP [DLC1]", "rule met"),
    ("ELDILPIHPPSGNSDLDPDAQNPM [BTBD10]", "rule met"),
    ("AKVKGHRSQKHKERIRLLRQKREA [C18orf25]", "rule met"),
    ("LPSLSCRTSCSSRPCVPPSCHGYT [KRT33B]", "rule not met"),
    ("QQHRQGRSHHLEMVIQLLAIMCVS [PTGFR]", "rule not met"),
    ("GVRIVSRGRTQLFSLNPRSGSLIT [PCDHGA10]", "rule not met"),
    ("EEQESVDTGEEEEGGDESDLSSES [EHMT1]", "rule met"),
    ("KEDLIIPHHHSFYDFIVTKARGKS [FAM50A]", "rule met"),
    ("TEQALRLSVEADINGLRRVLDELT [KRT17]", "rule met"),
    ("IIVSIVHSVFEFLAFKNDIQFWNS [CLPTM1]", "rule not met"),
    ("QDPLKFYKKIYFCHSCQLYLPSTE [IQUB]", "rule not met"),
    ("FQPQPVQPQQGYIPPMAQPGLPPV [ZNF207]", "rule met"),
    ("HAPGVPRILVGNRLHLAFKRQVPT [RAB40C]", "rule not met"),
    ("DQNASTHTPQSSVKTSVPSSKSSG [CLINT1]", "rule met"),
    ("RILDELTLCKADLEAQVESLKEEL [KRT36]", "rule met"),
]

This collection of values is drawn from the supplement of paper PMC10567573.
